Tested on: ATP;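 further: ATP exposure 15 min at 22 °C before imaging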
Test: switch fluorescence ratio, 500 uM ATP over buffer (Cy3 cluster intensity, sum of 5 cycles each) (fold (ratio)); higher = stronger signal-on switching upon ATP binding; sequences stand for … in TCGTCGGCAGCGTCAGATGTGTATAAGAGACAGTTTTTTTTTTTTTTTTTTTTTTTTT…TC
Conditions: aptamer strand: ATP DNA aptamer (quencher-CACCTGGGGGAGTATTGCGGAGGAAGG + anchor), 100 nM annealed; ATP concentration: 500 uM

- sequence: "TATTCCAATA"
  targetEntity: "ATP"
  switch fluorescence ratio: 0.995
- sequence: "CGGGTTCGCC"
  targetEntity: "ATP"
  switch fluorescence ratio: 0.981
- sequence: "TAAGCAAAAG"
  targetEntity: "ATP"
  switch fluorescence ratio: 1.19
- sequence: "TCTGTTAATT"
  targetEntity: "ATP"
  switch fluorescence ratio: 1.01
- sequence: "AAGCGTTGTG"
  targetEntity: "ATP"
  switch fluorescence ratio: 0.998
- sequence: "CAGGGGGGCC"
  targetEntity: "ATP"
  switch fluorescence ratio: 1.03
- sequence: "GATCTTATCG"
  targetEntity: "ATP"
  switch fluorescence ratio: 0.984
- sequence: "GTTATAGCTA"
  targetEntity: "ATP"
  switch fluorescence ratio: 0.986
- sequence: "TTCTTATTGT"
  targetEntity: "ATP"
  switch fluorescence ratio: 0.975
- sequence: "TTATCGTTGG"
  targetEntity: "ATP"
  switch fluorescence ratio: 1
- sequence: "TGAATTTTAA"
  targetEntity: "ATP"
  switch fluorescence ratio: 0.995
- sequence: "AAAGGCATTC"
  targetEntity: "ATP"
  switch fluorescence ratio: 1.05
- sequence: "ACGTAATGG"
  targetEntity: "ATP"
  switch fluorescence ratio: 1.57
- sequence: "CTGGGGGGGA"
  targetEntity: "ATP"
  switch fluorescence ratio: 1.02

---

System: ATP;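 further: ATP exposure 15 min at 22 °C before imaging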
Assay: switch fluorescence ratio, 500 uM ATP over buffer (Cy3 cluster intensity, sum of 5 cycles each) (fold (ratio)); higher = stronger signal-on switching upon ATP binding; sequences stand for … in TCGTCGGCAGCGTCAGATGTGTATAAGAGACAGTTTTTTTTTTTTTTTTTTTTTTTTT…TC
Conditions: aptamer strand: ATP DNA aptamer (quencher-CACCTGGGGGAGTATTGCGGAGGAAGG + anchor), 100 nM annealed; ATP concentration: 500 uM
Quick rule: switch fluorescence ratio of at least 1 means t, below that means f.

- sequence: "ACGGCTGGAA"
  classLabel: "f"
- sequence: "CTTAGATGTT"
  classLabel: "f"
- sequence: "TCAAGGTCCT"
  classLabel: "t"
- sequence: "TGCCGTTTGC"
  classLabel: "f"
- sequence: "GGTTACGGTA"
  classLabel: "t"
- sequence: "CTGGAAGTTT"
  classLabel: "f"
- sequence: "TTTGGTCCTT"
  classLabel: "t"
- sequence: "GAAGCGGGGG"
  classLabel: "t"
- sequence: "GAGTACTCGT"
  classLabel: "t"
- sequence: "ACCCAGTGAA"
  classLabel: "t"
- sequence: "CTTAAAGAGT"
  classLabel: "f"
- sequence: "CGGGGATTCC"
  classLabel: "t"
- sequence: "TTGCGTTAGG"
  classLabel: "t"
- sequence: "TTGGAGGACA"
  classLabel: "t"

---

Test system: ATP;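 further: ATP exposure 15 min at 22 °C before imaging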
Test: switch fluorescence ratio, 500 uM ATP over buffer (Cy3 cluster intensity, sum of 5 cycles each) (fold (ratio)); higher = stronger signal-on switching upon ATP binding; sequences stand for … in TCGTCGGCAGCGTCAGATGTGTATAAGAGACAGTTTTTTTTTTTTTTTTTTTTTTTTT…TC
Conditions: aptamer strand: ATP DNA aptamer (quencher-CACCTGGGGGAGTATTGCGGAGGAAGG + anchor), 100 nM annealed; ATP concentration: 500 uM

- sequence: "AGCTGTGACC"
  targetEntity: "ATP"
  switch fluorescence ratio: 1
- sequence: "TCACCGAGGC"
  targetEntity: "ATP"
  switch fluorescence ratio: 1.15
- sequence: "CGTGAAAGTG"
  targetEntity: "ATP"
  switch fluorescence ratio: 0.991
- sequence: "GTGGATAATG"
  targetEntity: "ATP"
  switch fluorescence ratio: 0.996
- sequence: "AATTTCCTTT"
  targetEntity: "ATP"
  switch fluorescence ratio: 0.988
- sequence: "TTTCGGTTAT"
  targetEntity: "ATP"
  switch fluorescence ratio: 1.02
- sequence: "TCTTATATTT"
  targetEntity: "ATP"
  switch fluorescence ratio: 0.998
- sequence: "GATAGGGGGA"
  targetEntity: "ATP"
  switch fluorescence ratio: 0.984

---

Measured switch fluorescence ratio values are reported for all entries that follow.
Test system: ATP;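 further: ATP exposure 15 min at 22 °C before imaging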
Assay: switch fluorescence ratio, 500 uM ATP over buffer (Cy3 cluster intensity, sum of 5 cycles each) (fold (ratio)); higher = stronger signal-on switching upon ATP binding; sequences stand for … in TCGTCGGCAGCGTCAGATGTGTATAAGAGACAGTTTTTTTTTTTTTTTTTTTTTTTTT…TC
Settings: aptamer strand: ATP DNA aptamer (quencher-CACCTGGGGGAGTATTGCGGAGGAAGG + anchor), 100 nM annealed; ATP concentration: 500 uM
outcomeMeasure: switch fluorescence ratio

- sequence: "AGGTACGTTT"
  targetEntity: "ATP"
  measuredNumber: 1.03
- sequence: "TTTTTGTATG"
  targetEntity: "ATP"
  measuredNumber: 1.02
- sequence: "TTGGCGCGGC"
  targetEntity: "ATP"
  measuredNumber: 1.1
- sequence: "TGATGCACGG"
  targetEntity: "ATP"
  measuredNumber: 1.04
- sequence: "CGGCTTACGT"
  targetEntity: "ATP"
  measuredNumber: 0.993
- sequence: "GGGAGCTGCG"
  targetEntity: "ATP"
  measuredNumber: 1
- sequence: "TTCGCTTTTT"
  targetEntity: "ATP"
  measuredNumber: 0.991
- sequence: "TCCTTTATTG"
  targetEntity: "ATP"
  measuredNumber: 1.01
- sequence: "TGGTGGTGTA"
  targetEntity: "ATP"
  measuredNumber: 0.954

---

Tested on: ATP;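 further: ATP exposure 15 min at 22 °C before imaging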
Assay: switch fluorescence ratio, 500 uM ATP over buffer (Cy3 cluster intensity, sum of 5 cycles each) (fold (ratio)); higher = stronger signal-on switching upon ATP binding; sequences stand for … in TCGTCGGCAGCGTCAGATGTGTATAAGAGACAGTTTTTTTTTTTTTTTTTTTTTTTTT…TC
Conditions: aptamer strand: ATP DNA aptamer (quencher-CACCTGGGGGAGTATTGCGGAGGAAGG + anchor), 100 nM annealed; ATP concentration: 500 uM
Quick rule: switch fluorescence ratio of at least 1 means true (1), below that means false (0).

- sequence: "TTTGGGCGCT"
  classLabel: "true (1)"
- sequence: "ATGTCCTAGC"
  classLabel: "true (1)"
- sequence: "TATAAGTAGT"
  classLabel: "false (0)"
- sequence: "TAGTTATGTG"
  classLabel: "false (0)"
- sequence: "ACAAGATGGG"
  classLabel: "true (1)"

---

Test system: ATP;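 further: ATP exposure 15 min at 22 °C before imaging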
Assay: switch fluorescence ratio, 500 uM ATP over buffer (Cy3 cluster intensity, sum of 5 cycles each) (fold (ratio)); higher = stronger signal-on switching upon ATP binding; sequences stand for … in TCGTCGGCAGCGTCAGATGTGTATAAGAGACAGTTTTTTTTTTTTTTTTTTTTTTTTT…TC
Settings: aptamer strand: ATP DNA aptamer (quencher-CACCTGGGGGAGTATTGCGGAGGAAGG + anchor), 100 nM annealed; ATP concentration: 500 uM

- sequence: "TCTATGAGGC"
  targetEntity: "ATP"
  switch fluorescence ratio: 0.988
- sequence: "TAGGGTCGG"
  targetEntity: "ATP"
  switch fluorescence ratio: 1
- sequence: "CTATACGGTT"
  targetEntity: "ATP"
  switch fluorescence ratio: 0.983
- sequence: "ATTTATGTGC"
  targetEntity: "ATP"
  switch fluorescence ratio: 1.01
- sequence: "CATTTTTATC"
  targetEntity: "ATP"
  switch fluorescence ratio: 0.992
- sequence: "CAAGCCGGGG"
  targetEntity: "ATP"
  switch fluorescence ratio: 0.979
- sequence: "TTGTAGACGT"
  targetEntity: "ATP"
  switch fluorescence ratio: 1.02
- sequence: "GCTTGTATTT"
  targetEntity: "ATP"
  switch fluorescence ratio: 1
- sequence: "GGAAATAAGG"
  targetEntity: "ATP"
  switch fluorescence ratio: 1.01
- sequence: "GTGTTTAATT"
  targetEntity: "ATP"
  switch fluorescence ratio: 1.03
- sequence: "TTTCATTAAA"
  targetEntity: "ATP"
  switch fluorescence ratio: 0.994
- sequence: "ATGTAGAGGC"
  targetEntity: "ATP"
  switch fluorescence ratio: 0.987
- sequence: "GCATGTAGTG"
  targetEntity: "ATP"
  switch fluorescence ratio: 0.979
- sequence: "GATTTTTACG"
  targetEntity: "ATP"
  switch fluorescence ratio: 1
- sequence: "CCTTTTCAGC"
  targetEntity: "ATP"
  switch fluorescence ratio: 1.12
- sequence: "TTCAAAGGGT"
  targetEntity: "ATP"
  switch fluorescence ratio: 1
- sequence: "TCGGATTCGA"
  targetEntity: "ATP"
  switch fluorescence ratio: 1.02
- sequence: "GGGGACCGGG"
  targetEntity: "ATP"
  switch fluorescence ratio: 1.07
- sequence: "GCAGCCGGGT"
  targetEntity: "ATP"
  switch fluorescence ratio: 0.991
- sequence: "TATTTATCTT"
  targetEntity: "ATP"
  switch fluorescence ratio: 0.989
- sequence: "AAAAATTAAT"
  targetEntity: "ATP"
  switch fluorescence ratio: 0.979
- sequence: "CGTACACGTT"
  targetEntity: "ATP"
  switch fluorescence ratio: 1.02
- sequence: "CTGAACTATG"
  targetEntity: "ATP"
  switch fluorescence ratio: 1
- sequence: "GAACGTCGGA"
  targetEntity: "ATP"
  switch fluorescence ratio: 1.03
- sequence: "TAGAGAGGAG"
  targetEntity: "ATP"
  switch fluorescence ratio: 1.03
- sequence: "ATTAAGTTGA"
  targetEntity: "ATP"
  switch fluorescence ratio: 0.987
- sequence: "CATATTTT"
  targetEntity: "ATP"
  switch fluorescence ratio: 0.971
- sequence: "CAATCTTTAA"
  targetEntity: "ATP"
  switch fluorescence ratio: 1.02
- sequence: "CGGGACGGCA"
  targetEntity: "ATP"
  switch fluorescence ratio: 1.01
- sequence: "AGAAGCTATT"
  targetEntity: "ATP"
  switch fluorescence ratio: 0.972
- sequence: "TTAGAGGGTG"
  targetEntity: "ATP"
  switch fluorescence ratio: 1.12
- sequence: "GACGGAAGTT"
  targetEntity: "ATP"
  switch fluorescence ratio: 1
- sequence: "GCTCGACAAT"
  targetEntity: "ATP"
  switch fluorescence ratio: 1.15
- sequence: "TTAGAAGGCA"
  targetEntity: "ATP"
  switch fluorescence ratio: 1.03
- sequence: "CACCGCGTCG"
  targetEntity: "ATP"
  switch fluorescence ratio: 1.21
- sequence: "AGTGGTGAGG"
  targetEntity: "ATP"
  switch fluorescence ratio: 0.983

Entry source: the supplement of paper PMC10126150
